system: OE33 (Esophageal Adenocarcinoma); test: Bliss excess, mean over the matrix (fraction); higher = more synergy;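 note: after 72 h of two-drug dosing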
Please note: yes (1) applies when Bliss excess is -0.02 or greater, and no (0) applies otherwise.

Known results for compounds:
| Compound | Label |
| --- | --- |
| Cc1cc2ncnn2cc1Nc1ncc2c(n1)n(C1CCOCC1)c(=O)n2C [AZD7648] + C=CCn1c(=O)c2cnc(Nc3ccc(N4CCN(C)CC4)cc3)nc2n1-c1cccc(C(C)(C)O)n1 [AZD1775] (first compound max 10 µM, partner max 1 µM) | yes (1) |
| Cc1nc(Nc2ncc(C(=O)Nc3c(C)cccc3Cl)s2)cc(N2CCN(CCO)CC2)n1 [Dasatinib] + CC(=O)Nc1cccc(-n2c(=O)n(C3CC3)c(=O)c3c(Nc4ccc(I)cc4F)n(C)c(=O)c(C)c32)c1 [Trametinib] (first compound max 2 µM, 7x7, partner max 1 µM) | yes (1) |
| O=C(c1cc(Cc2n[nH]c(=O)c3ccccc23)ccc1F)N1CCN(C(=O)C2CC2)CC1 [Olaparib] + COc1nnc2ccc(N3CCC(c4ccc(OCCN5CCN(C)C(=O)[C@H]5C)cc4)CC3)nn12 [AZD5153] (first compound max 10 µM, 7x7, partner max 1 µM) | no (0) |
| C[C@@H]1COCCN1c1cc(C2([S@](C)(=N)=O)CC2)nc(-c2ccnc3[nH]ccc23)n1 [AZD6738] + O=C(c1cc(Cc2n[nH]c(=O)c3ccccc23)ccc1F)N1CCN(C(=O)C2CC2)CC1 [Olaparib] (first compound max 10 µM, 7x7, partner max 10 µM) | no (0) |
| Cc1c2c(nn1C)CSCc1cc(n(C)n1)CSc1cc(c3ccccc3c1)OCCCc1c(C(=O)O)n(C)c3c-2c(Cl)ccc13 [AZD5991] + CS(=O)(=O)CCNCc1ccc(-c2ccc3ncnc(Nc4ccc(OCc5cccc(F)c5)c(Cl)c4)c3c2)o1 [Lapatinib] (first compound max 1 µM, 7x7, partner max 10 µM) | no (0) |

Query: # bool: Bliss excess of CC(=O)c1c(C)c2cnc(Nc3ccc(N4CCNCC4)cn3)nc2n(C2CCCC2)c1=O [Palbociclib] + Cc1c2c(nn1C)CSCc1cc(n(C)n1)CSc1cc(c3ccccc3c1)OCCCc1c(C(=O)O)n(C)c3c-2c(Cl)ccc13 [AZD5991] (first compound max 10 µM, 7x7, partner max 1 µM) >= -0.02
Result: yes (1)

Query: # bool: Bliss excess of CS(=O)(=O)CCNCc1ccc(-c2ccc3ncnc(Nc4ccc(OCc5cccc(F)c5)c(Cl)c4)c3c2)o1 [Lapatinib] + C[C@@H](Oc1cc(-c2cnn(C3CCNCC3)c2)cnc1N)c1c(Cl)ccc(F)c1Cl [Crizotinib] (first compound max 10 µM, 7x7, partner max 10 µM) >= -0.02
Result: yes (1)
